Provenance of the data: patent US9040707B2

Reported Emax values are given for each entry in this list.
target: human mGluR5a receptor (Homo sapiens, UniProt P41594); construct: host or cells: HEK293A (monoclones H10H and H12H); experiment: Functional Assay 2: Ca2+ mobilization, HEK cells with human mGluR5a receptor (H10H cell line); format: cell-based; conditions: HEK293; H10H cell line; maximum average response at a single concentration, relative to glutamate ECMax
Sequence (P41594 21-1180 isoform P41594-2 limits assumed): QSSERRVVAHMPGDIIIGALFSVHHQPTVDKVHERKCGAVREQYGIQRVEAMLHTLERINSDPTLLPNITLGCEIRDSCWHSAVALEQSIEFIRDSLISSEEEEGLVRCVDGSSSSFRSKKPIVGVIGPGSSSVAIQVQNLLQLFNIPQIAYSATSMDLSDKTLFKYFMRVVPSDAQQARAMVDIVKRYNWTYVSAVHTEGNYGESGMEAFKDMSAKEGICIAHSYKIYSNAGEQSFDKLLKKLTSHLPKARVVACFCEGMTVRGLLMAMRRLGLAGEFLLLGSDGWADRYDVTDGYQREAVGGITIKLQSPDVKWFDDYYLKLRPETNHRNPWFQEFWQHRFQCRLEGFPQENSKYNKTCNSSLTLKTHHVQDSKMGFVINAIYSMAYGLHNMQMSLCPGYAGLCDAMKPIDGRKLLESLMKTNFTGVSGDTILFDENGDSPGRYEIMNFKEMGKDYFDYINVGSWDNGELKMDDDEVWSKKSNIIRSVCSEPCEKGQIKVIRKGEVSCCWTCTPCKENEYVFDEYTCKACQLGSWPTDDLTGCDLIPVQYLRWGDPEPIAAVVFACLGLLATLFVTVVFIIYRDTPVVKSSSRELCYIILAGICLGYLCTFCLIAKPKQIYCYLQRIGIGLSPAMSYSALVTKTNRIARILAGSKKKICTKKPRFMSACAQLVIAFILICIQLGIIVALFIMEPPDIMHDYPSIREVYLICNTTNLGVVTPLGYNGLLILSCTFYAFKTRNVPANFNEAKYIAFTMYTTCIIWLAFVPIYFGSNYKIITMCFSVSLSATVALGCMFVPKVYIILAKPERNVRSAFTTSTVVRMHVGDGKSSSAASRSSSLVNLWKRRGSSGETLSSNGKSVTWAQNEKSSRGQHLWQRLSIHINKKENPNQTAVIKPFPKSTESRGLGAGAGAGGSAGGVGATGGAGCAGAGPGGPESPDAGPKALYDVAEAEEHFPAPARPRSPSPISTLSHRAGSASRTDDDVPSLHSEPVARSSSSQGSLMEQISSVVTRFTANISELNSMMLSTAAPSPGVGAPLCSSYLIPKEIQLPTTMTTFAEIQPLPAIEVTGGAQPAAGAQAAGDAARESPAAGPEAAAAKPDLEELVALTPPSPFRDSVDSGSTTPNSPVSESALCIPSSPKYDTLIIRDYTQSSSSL
State the answer as a number, implicitly in %.

Recorded Emax, per entry:
Cc1cccc(COc2nc3c(s2)C(=O)N(c2ccc(F)cc2F)CC3)c1 | 54
O=C1c2sc(COc3ccccc3)nc2CCN1c1cccnc1 | 78
Cc1ccccc1COc1nc2c(s1)C(=O)NCC2 | 18
CC(C)N1CCc2nc(COc3ccccc3)sc2C1=O | 37.5
O=C1c2sc(OCc3cccc(F)c3)nc2CCN1c1ccc(F)cc1 | 38

**Q:** Give the reported value of Emax for this record: `O=C1c2sc(COc3ccccc3)nc2CCN1CC1CCOCC1`
**A:** 78

**Q:** Indicate its recorded Emax; the compound in question is `O=C1c2sc(COc3ccc(F)cc3)nc2CCN1c1ccc(F)cc1`
**A:** 75

**Q:** Please give measured Emax of the following entry: `O=C1c2sc(OCc3ccccc3)nc2CCN1Cc1ccccc1F`
**A:** 56

**Q:** // Input: `O=C1c2sc(COc3ccccc3)nc2CCN1c1ccccn1` . Output its Emax only.
**A:** 85

**Q:** Answer with reported Emax of `COc1ccccc1N1CCc2nc(COc3cccc(F)c3)sc2C1=O`
**A:** 83

**Q:** Give recorded Emax. `O=C1c2sc(COc3ccccc3F)nc2CCN1C1CC1`
**A:** 27

**Q:** Provide one value: measured Emax of `O=C1c2sc(COc3ccccc3)nc2CCCN1c1ccc(F)cc1`
**A:** 81

**Q:** Look up Emax of `O=C1c2sc(OCc3ccccc3)nc2CCN1c1ccc(F)cc1F` and report it.
**A:** 67

**Q:** Please give the documented Emax of `COCCN1CCc2nc(COc3ccccc3)sc2C1=O`
**A:** 69

**Q:** Write down Emax measured for item `O=C1c2sc(COc3ccccc3)nc2CCN1C1CC1`
**A:** 36

**Q:** Return reported Emax. Input compound: `O=C1c2sc(OCc3ccccc3)nc2CCN1Cc1ccc(F)cc1F`
**A:** 48

**Q:** Please report the measured Emax for `O=C1c2sc(COc3ccccc3)nc2CCN1c1ncccc1F`
**A:** 69

---

# melting point listing for each entry below

Worked examples, 5 compounds total:
Cc1cccc(COc2nc3c(s2)C(=O)N(c2ccc(F)cc2F)CC3)c1 [Compound 21] | 95.2 to 97.2 °C
O=C1c2sc(COc3ccccc3)nc2CCCN1c1ccc(F)cc1 [Compound 11] | 120.4 °C
O=C1c2sc(OCc3ccccc3F)nc2CCN1c1ccc(F)cc1F [Compound 18] | 78.9 to 80.7 °C
O=C1c2sc(COc3ccc(F)cc3)nc2CCN1c1ccc(F)cc1F [Compound 32] | > 280 °C
O=C1c2sc(COc3ccc(F)cc3)nc2CCN1C1CC1 [Compound 62] | 126.3 to 130.8 °C

**Q:** Please report melting point for the following compound: O=C1c2sc(OCc3ccccc3F)nc2CCN1c1ccc(F)cc1 [Compound 22]
**A:** 91 to 92.5 °C

**Q:** Hello, please tell me recorded melting point for this one: O=C1c2sc(OCc3cccc(F)c3)nc2CCN1c1cccc(C(F)(F)F)c1 [Compound 30]
**A:** 108.2 to 108.9 °C

**Q:** Return value of melting point for input O=C1c2sc(OCc3ccccc3)nc2CCN1Cc1ccccc1F [Compound 16] , no commentary.
**A:** 77.4 to 79.2 °C
